test: Oral bioavailability in male rat at 5 mg/kg; type: ADME, organism-based; details: in vivo

{"Smiles structure": "N#Cc1ccc(C[Se]c2cccc(C3CCN(Cc4nc5ccc(C(=O)O)cc5n4C[C@@H]4CCO4)CC3)n2)c(F)c1", "bioavailability": "23.4%"}

###

target: Glucagon-like peptide 1 receptor (Homo sapiens, UniProt P43220); experiment: Partial agonist activity at LgBit-tagged GLP-1R (unknown origin) transfected in HEK293 cells co-transfected with Smbit-tagged beta-arrestin-1 assessed as beta-arrestin recruitment incubated for 5 mins by envision microplate reader analysis; assay type: functional, cell-based
Sequence (P43220 whole entry): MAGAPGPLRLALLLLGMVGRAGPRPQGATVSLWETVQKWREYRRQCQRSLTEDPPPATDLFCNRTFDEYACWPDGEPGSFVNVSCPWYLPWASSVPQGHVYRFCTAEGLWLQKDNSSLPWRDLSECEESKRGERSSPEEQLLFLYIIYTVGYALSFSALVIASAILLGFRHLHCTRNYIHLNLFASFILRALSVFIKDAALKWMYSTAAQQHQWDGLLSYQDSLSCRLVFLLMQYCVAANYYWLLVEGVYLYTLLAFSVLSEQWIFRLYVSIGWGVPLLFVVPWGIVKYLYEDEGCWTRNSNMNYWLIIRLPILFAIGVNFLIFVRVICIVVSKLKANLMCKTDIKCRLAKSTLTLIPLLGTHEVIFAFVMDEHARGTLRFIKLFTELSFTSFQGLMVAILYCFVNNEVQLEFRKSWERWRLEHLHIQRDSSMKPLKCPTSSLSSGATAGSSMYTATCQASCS
Here, each record is paired with measured EC50 data.
Metric name: EC50

{"Smiles structure": "COc1cc(C(F)(F)F)ccc1C[Se]c1cccc(N2C=NN(Cc3nc4c(F)cc(C(=O)O)cc4n3C[C@@H]3CCO3)CC2)n1", "Recorded measurement": "> 200 µM"}
{"Smiles structure": "COc1cc(C#N)ccc1C[Se]c1cccc(N2C=NN(Cc3nc4c(F)cc(C(=O)O)cc4n3C[C@@H]3CCO3)CC2)n1", "Recorded measurement": "> 200 µM"}
{"Smiles structure": "COc1cc(C#N)ccc1C[Se]c1cccc(C2CCN(Cc3nc4ccc(C(=O)O)cc4n3C[C@@H]3CCO3)CC2)n1", "Recorded measurement": "> 200 µM"}
